system: MKN-45 (human gastric carcinoma cell); assay: In vitro anti-tumor cellular activity (MTT), MKN-45; format: cell-based; details: 72 hours
Would you mind telling me the reported MKN-45 IC50 of each entry?
Write down the numeric answer in µg/mL and omit the unit.

The compound `CCC(=NNC(=O)Nc1ccc(Oc2ccnc3cc(OCCCN4CCCCC4)c(OC)cc23)c(F)c1)c1ccccc1` showed MKN-45 IC50 equal to 0.0020

MKN-45 IC50 in this record for `COc1cc2c(Oc3ccc(C=NNC(=S)Nc4ccc(Cl)c(C(F)(F)F)c4)cc3F)ccnc2cc1OCCCN1CCC(C)CC1` : 0.65

The reported value for `COc1cc2c(Oc3ccc(C=NNC(=O)Nc4ccc(Cl)c(C(F)(F)F)c4)cc3F)ccnc2cc1OCCCN1CCCCC1` in terms of MKN-45 IC50 is 0.23

Looking up `COc1cc2c(Oc3ccc(NC(=O)N/N=C/c4ccc(F)cc4)cc3F)ccnc2cc1OCCCN1CCC(C)CC1` , I see its MKN-45 IC50 listed as 0.038
